# System: Vero E6-eGFP cells
# Particulars: read-out: VeroE6 + CP (CC50), absence of virus, numeric values
Metric: CC50

compound="CC(C)(C)[C@H](NC(=O)C1CC1)C(=O)N1C[C@H]2[C@@H]([C@H]1C(=O)N[C@H](C#N)C[C@@H]1CCNC1=O)[C@H]1C=C[C@@H]2C1 [Example 21]" metric=CC50 result="> 50 µM"
compound="N#C[C@H](C[C@@H]1CCNC1=O)NC(=O)[C@@H]1[C@@H]2[C@H](CN1C(=O)[C@@H]1C[C@]13CCCc1ccccc13)[C@@H]1C=C[C@H]2C1 (single isomer, unassigned) [Example 8]" metric=CC50 result="> 50 µM"
compound="CC(C)(C)[C@H](NC(=O)C1(C(F)(F)F)CC1)C(=O)N1C[C@H]2[C@@H]([C@H]1C(=O)N[C@H](C#N)C[C@@H]1CCNC1=O)[C@H]1C=C[C@@H]2C1 [Example 20]" metric=CC50 result="> 50 µM"
